# run description: protease stability score; higher = more stable; yeast display proteolysis, trypsin and chymotrypsin;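 note: log10 excess protease needed over predicted unfolded state with 0 meaning unfolded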
endpoint name: protease stability score
Returns: the value as a bare number; no unit string appended.

Prompt: Bench note: what protease stability score did DEQNEAKRLVEKLQSIVKSGDEEEWMKQFDENVKVSVGDKTVHGREDMVKQYQQHVKRADTMELQVNEYSVHNGRVSIRYKMRVDVNGQRHTTEAHVDFRNVNGRFKAQSVNQK show?
Response: 0

Prompt: Now give it for DEDAVRVMETYMKIYETGNPEELNRLVDPNVKFNIGDQRIKGREHARKFWRKILQHSRVELRRLDVHTRPNRVEARAEVVVNHNGKPKNFQFTFSAHLHNGRIKEVTIKHSK too.
Response: 1.34

Prompt: Now give it for EEKQDTRLEEFVSAVLKGDEQEAVDLADPNADMHIGEWHVRGREQIRKFIDQLRKRIRVQVDEMHVDNQGENVTVRATFVLDHNGVPMEFEIEYRLVVDNGRLKSVHARVPEEVKNRRRR too.
Response: 0.294

Prompt: Now give it for DHDLNQQAQQWVRNFNNGDEDKLQDYADPNVRFQIGDEQVHGREEYKSRVKKKRKHARFRIRVREIDAQGEHVHVKADIIQNINGRPMDDHVIFHFEVRNGKLKSLKLRVDPEKQRELEK too.
Response: 0.417

Prompt: Now give it for EEDLHEAFERIKHALEHGDPKQVQNQFDPNVEVIIGNKTLHGRETLKDEVKKLQDEMQITWRSITINVDGDRVVVHYHIEFRINGQPQSMSYNVDARASNGKIEEMDLRISEDQQKRLNS too.
Response: 0.06

Prompt: Now give it for DEEELKDWLRNAREIWETGNPDQMEELADPDASIQVGDRTYHGSDEYKKWVEDMHRHADHIEVKEVSIRGDKVHIQVVINVNGRNFTFEFELRVRNGRVKQFNFDPDRMEEIKK too.
Response: 0.574

Prompt: Now give it for DEEVLKVAHDWFENVTQGDPDKLSRLMDKDARVNVGEKQYHGREEIMRQHERENKEAEVTFQKMDFKVTGDRAVVNVRVDVNINGQPFEVTFIFKLEVHNGRIKQIEMDFSEEQWDKLRR too.
Response: -0.211

Prompt: Now give it for DEEQNTRFHRMLEDLKTGNEERVQDYMDPNVKVRIGNNVLDGREHAATHMVQLNREIRFHIHNFTVQVHNGRLDIKANADADVNGKPIKFSYERYAILHNGTIKRMREQFDEHLKRQLDR too.
Response: -0.013

Prompt: Now give it for DEEKQAEDFFKEQYEIFRTGDQNREKDMVDPNANVNVGEYRYHGSKDLMKLMRQLRERVDHVQVTLRSINVKNGKAFIHVEEKFKVNGRVDTDRYVIVLSNHNGKWLLVTIQRG too.
Response: 0.749

Prompt: Now give it for EEELFEQWQKIIENQEHGNEDRLQDQFDPNARIDVGDKRIRGRENLAKDQQDKLDNIRFDFQIDHVQDRPGKIVIKYHEVNNHNGKPRSDTVVVHIQAHNGKIQRIDVQKDK too.
Response: -0.065

Prompt: Now give it for DDDHARRLAERFIKAFQKGDEERAKDLAPPDVKVHVGDTQYNGREQMKQAVKDFRERVDHLSVETIKVRNGRVEVHATANINGVEVNVVFTFVFRNGKMKSMDLKYRDEEAHRNWTS too.
Response: 1.19
